Each recorded value in this set is attributed to the supplement of paper PMC9170038.

Test system: MS2 coat protein
Test: apparent KD of MS2 coat protein; designed switch direction (-1 OFF switch, 1 ON switch): -1; higher = weaker reporter binding
Settings: input ligand: microRNA oligo, concentration not stated
Recorded apparent KD of MS2 coat protein values for a group of sequences are listed next.
Assay readout: apparent KD of MS2 coat protein (nM)

1. CCAGGGCACAAUUAAACGCCCUAACAUGAGGAUCACCCAUGUCAGGAUAUGUAGGCAAAGACCCUACAGAAGGGACAUGUCCUA [Xegeat] (Eterna round: R96, puzzle: Exclusion NG 3)    76.1
2. CCAUAUAACUGAGGAUAUACUCACCACUAACAUGUAGAAGGCAGACAUGAGGAUCACCCAUGUGAUUUCUCAAUAUUAUACAUC [Prohibition 75 - Jieux - Exclusion NG 1] (Eterna round: R96, puzzle: Exclusion NG 1)    500
3. ACCAUUACCACACCCUCUAUACAUGAGGAUCACCCAUGUUCUGAGGAUAUCAUCGCUCGCCGCGUUGAGAAGGCAGAGCAUUAA [Tiisri] (Eterna round: R96, puzzle: Exclusion NG 3)    9.21
4. UAGUUAUUCACAGGAUAUCGCCUCUUAUUACAUGAGGAUCACCCAUGUUUAGUUAGUUACAUGUUCGAGAAGGGUGUAGUUGUU [JR_ExcNG2_Sub043] (Eterna round: R96, puzzle: Exclusion NG 2)    290
5. AAAAGGCAGGGAGGAUAUGCUUGCCUGGGUCGUCUUCAAACAUGAGGAUCACCCAUGUAGUCGACGCAGAAGGCCCUCAAAGAA [Mat - Exclusion NG 2 - Mod of JL - D62] (Eterna round: R96, puzzle: Exclusion NG 2)    40.8
6. GCGCAAACGCCAAAAGGCGAAAUUACAUGAGGAUCACCCAUGUAGGAUAUCGAUUGCUUUGCAGUCGAGAAGGACAUGAUGCGC [JL ENG3 3.80 Mod 1] (Eterna round: R96, puzzle: Exclusion NG 3)    13.6
7. AAACAAACGGCAGGAUAUCCUCGUCAACACCACAAGUCCACUCGGACAUGAGGAUCACCCAUGUAGGAGAAGGGUCAGAAAUAC [ExNG2 4th] (Eterna round: R96, puzzle: Exclusion NG 2)    24.6
8. GCACGAAGUGUAGGAUAUCUGUGCGAUUAGCUCAGAGAAGGACACAUGAGGAUCACCCAUGUGUUCCGCGGAAGCAAUACGUGC [Eli exng1 - 057] (Eterna round: R96, puzzle: Exclusion NG 1)    9.73
9. AGAGUGCUGCGAGGAUAUACAUGAGGAUCACCCAUGUGGUCCUGUGAGGGAAAACCUCACAGGAUGUAGAAGGCGCAGUACUCA [Mat - Exclusion NG 2 - Mod of JL - D47] (Eterna round: R96, puzzle: Exclusion NG 2)    10.9

###

Tested on: K4 kissing-loop RNA reporter;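 note: bound reporter read as fluorescence of individual clusters on recovered sequencing chips by microscopy, with normalized cluster intensities fitted with a binding model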
Assay: apparent KD of K4 kissing-loop reporter; higher = weaker reporter binding
Conditions: Eterna round: R107; input ligand: none
Recorded apparent KD of K4 kissing-loop reporter values for a group of sequences are listed next.
Assay readout: apparent KD of K4 kissing-loop reporter (nM)

1) CCUUCUCUUGAUAGUGAUGUUGUCAAGGGCAAGGAUAUCAUCUUAAUGAGAAGGUGUCCUUGAUAACAUGGAGGUCUGAAACAGA [Omei KL FMN A Exc C v7]    301
2) AGUGGACGUGUCUGGAGUGAUGUUCUGGAUACCAGACACGAAAGUGUCCCUUGGCAGCCGGAGUGAUGUUCCGGCGUUCACUAAA [Omei KL Theo A Exc B v5]    402
3) UGUCAUUGGUCGGCCGCCACUCCAUAAAGAGUGAUGUUCUGAAAGACGGAUCGAAAGAUCUGUCGGAGGACCGGGACCGAUGACU [FiskerMod 3 - Jieux - Same State - Tryptophan B]    1540

###

Recorded apparent KD of MS2 coat protein values for a group of sequences are listed next.
Tested on: MS2 coat protein
Test: apparent KD of MS2 coat protein; designed switch direction (-1 OFF switch, 1 ON switch): -1; higher = weaker reporter binding
Conditions: input ligand: FMN 200 uM
Assay readout: apparent KD of MS2 coat protein (nM)

1. UUGCAGUCGUCAGGAUAUAGUAUUACGGCCUUUCAUUUCUUCAUACAUGAGGAUCACCCAUGUCGCUAGAAGGGCUUCUCGCUU [salish99_ExNG2_r04_109] (Eterna round: R96, puzzle: Exclusion NG 2)    15.3
2. GAGACAGAAGGAUAUACGUCCGCGAGUGCGAUGCGCUUGGGACAUGAGGAUCACCCAUGUAGAAGGUCUAACCC [Eternabot (L1) Solution 89] (Eterna round: R97, puzzle: Exclusion 2)    318
3. ACGCGUGGCUAGGAUAUGCAGAAAUCUAGCCAGGCAGAAGGAGCCACAUGAGGAUCACCCAUGUGGUGAUCCUC [eternacac ex6r4 sub1] (Eterna round: R97, puzzle: Exclusion 6)    10.8

###

Tested on: MS2 coat protein
Experiment: apparent KD of MS2 coat protein; designed switch direction (-1 OFF switch, 1 ON switch): -1; higher = weaker reporter binding
Settings: input ligand: none
Assay readout: apparent KD of MS2 coat protein (nM)

1. AGAAACUCAAGAGGAUAUCACAUGAGGAUCACCCAUGUAUAGCGCGCUAUGCUAGUCCUCGUAUUUGAGAAGGUUUGAUAAAUG [Mat - Exclusion NG 2 - Mod of JL - D78] (Eterna round: R96, puzzle: Exclusion NG 2)    16.9
2. ACAAGCAGAGAGUAAAUGGACAUGAGGAUCACCCAUGUGAGUCCGAAGAGAUAAGAUAUAUUGUCGGCUCGUCUUAU [AK-miRNA-r3-21] (Eterna round: R97, puzzle: Sensor, turn-off variant 1)    105
3. CAGUACUGAGGAUAUACAUGAGGAUCACCCAUGUGGGAGAUACUAGUGAGGUCGAUUAGUAGAAGGCAGUACUG [Mat X3R4 m21] (Eterna round: R97, puzzle: Exclusion 3)    184
4. UCUCGUUGGCAAGGAUAUCCUACAUUGUUCUGGCCCGGGCAUGCUACAUGAGGAUCACCCAUGUGGGAGAAGGUGCGCCACUGC [Design 25] (Eterna round: R96, puzzle: Exclusion NG 2)    108
5. CGGUGUAAGUCAGGAUAUGAGCGCAACUGACGAUCAGAAGGGACACAUGAGGAUCACCCAUGUGAUUUCUCAAUAUUAUACAUC [Prohibition 90 - Jieux - Exclusion NG 1] (Eterna round: R96, puzzle: Exclusion NG 1)    23.1

###

Tested on: MS2 coat protein
Test: apparent KD of MS2 coat protein; designed switch direction (-1 OFF switch, 1 ON switch): 1; higher = weaker reporter binding
Conditions: Eterna round: R98; input ligand: none
YES means recorded apparent KD of MS2 coat protein is 300 nM or above; NO means it is below 300 nM.

1. GCACUCAAGUUAGGAUAUGGAUCGGAAAACGAUCCAGAAGGAACAUGAAAACAUGAGCAUCAGCCAUGUUCCAGAAACGAGUGC [SameSame 13 - Jieux - Same State NG 1]    NO
2. GCUGUCGCAUGAGGAUAUGGUCACGUUUCGUGACCAGAAGGCAUGUCAAUAGACAUGAGGAUCACCCAUGUAGUAAAGACAGCA [Mat - Same State NG 1 - JL Mod - D40]    YES
3. UUUGGGAGCACAGGAUAUGGCACCUCGACCGUGCCAGAAGGGUGAUUCUGUUGGUGGCCACAUGAGGAUCACCCAUGUGCCUCC [Araterin]    NO
4. GGACAUCCCACAGGAUAUGCUGGACUUUGUCCAGCAGAAGGGUGAAACAUGAGGAUCACCCAUGUAAGGAUGUCCAUAUUUAAU [Denovo 40]    YES
5. GCAGAAGGUGCGGAGGAUCACCCUGUAAGGAUAUGCAUUAGCAAGGAUAUACAGAGGAUCACCCUGUAGAAGGUGCACUUCUAA [pwkr2 ssNG3 DX.7]    YES
6. CCGAUGCAAAUAAAACAUGAGGAUCACCCAUGUGAGUCUCAUGAGGAUAUGCAGGUCUUUGACUUGCAGAAGGCAUGGCGUCGG [Mat - Same State NG 3 - JL Mod - D70]    YES
7. GCUCUCACUUGAGGAUAUCGAGUGGAAUACACUCGAGAAGGCAGGAAAACCUGAGGAUCACCCAGGUAACUGGAAAGAGAGCAA [Same State NG1 - A3C, U17G Submission 5G-G46A]    NO
8. GUGCACAUUCGAGGAUAUCGGAGAGGAGUCCUUCGAGAAGGCGAUUCAUGCUGUGUUAUUCUGGACAUGAGGAUCACCCAUGUG [LRO019_SS NG 1 mod JR_SSNG1_Sub034]    NO
